From: the nanobody polyreactivity screen of Harvey et al. (2022)

assay: yeast display, Sf9 membrane polyspecificity reagent, FACS + sequencing; frameworks hold sequencing errors
metric: polyreactivity (PSR sort gate)

QVQLVESGGGLVQAGGSLRLSCAASGFTFGRYALGWYRQAPGKERELVAAISFSGGRTYYADSVKGRFTISRDKAKNTVYLQMNSLKPEDTAVYYCAARRRQEHVGRSSYARYDYWGQGTQVTVSS = high polyreactivity
QVQHVESVGGLVQAGGSLRLSCAASGFISDWYAMGWYRQAPGKERELVATIDWIGGSTYADSVKGRFTISRDNAKNTVYLQMNSLKPEDTAVYYCAADSYFIAWYGAHYAYDYWGQGTQVTVSS = low polyreactivity
QVQLVESGGGLVQEGGSLRLSCAASGFIFFLNAMGWYRQAPGKERELVAAISSSGGRTYYADSVKGRFTISRDNAKITVYLQMNSLKTEVTAVYYCNAVTLYRSRTDGYWGQGTQVTVSS = high polyreactivity
QVQLVESGGGLVQAGGSLRLSCAASGRTFTEYAMGWYRQAPGKERELVARISIGDSTYYADSVKGRFTISRDNAKNTVYLQMNSLKPEDTAVYYCNAEYSRSYRYDECYWGQGTQVTVSS = low polyreactivity
QVQLVESGGGLVQAGGSLRLSCAASGFIFGAYAMGWYRQAPGKERELVAAISRRGGSTYYADSVKGRFTISRDNAKNTVYLQMNSLKPEDTAVYYCAADISGSYYRPQYDYWGQGTQVTVSS = low polyreactivity
QVQLVESGRGLVQAGGSLRLSCAASGSTFYANTMGWYRQAPGKERELVAAISQSGGSTYYADSVKGRFTISRDNAKNTVYLQMNSLKPEDTAVYYCAARRLPRKERKLYYWGQGTQVTVSS = high polyreactivity
QVQLVESGGGLVQAGGSLRLSCAASGSIFIVYAMGWYRQAPGKERELVATITSGGSTNYADSVKGRFTISRDNAKNTVYVQMNSLKPEVTAVYYCAAESYWGSGVVPGYDYWGQGTQVTVSS = low polyreactivity
QVQLVESGGGLVHAGGSLRLSSAASGSIYYYAMGWYRQAPGKERELVAAITWRGGRTYYADSVKGRFTISRDNAKNNVYLQMNILKPEDTAVYYCNDVAPGKYNHWGQGTQVNVSS = high polyreactivity
QVQLVESGGGSVQAGGSLRLSCAASGSTFQTNAMGWYRQAPGKERELVAAISRTGGRTYYADSVKGRFTISRDNAKNTVYLQMNSLKPEDTAVYYCAASAWIRYNNRDGYGYWGQGTQVTVSS = high polyreactivity
QDQLVESRVGLVQAGGSLRLSCAASGRIIPKYAMGWYRQAPGKERELVAAISSSGGSTYYADSVKGRFTISRDYAKNNVYLQMNSLNPEVTAVYYCNVDKATRYRYPGFDYWGQGTQVSVSS = high polyreactivity
QVQHVESGGGLVQAGGSLRLSCAASALTFSSNAMGWYRQAPGKERELVAVITNGGSTNYADSVKGRLTISRDNAKNTVYLQMNSLKPEDTAVYYCAIDGGPAQDIGMDYWGQGTHVTVSS = low polyreactivity
QVQLVESGGGLVQAGGSLRLSCAASGRIFNIYAMGWYRQAPGKERELVAAIRWNGGSTYYADSVKGRFTISRDNAKYTVYLQMYSLKPEDSAVYYCAAARRRRFYDYYNAWYDVDYWGQGTQVSVSS = low polyreactivity
QVQLVESGGGLVQAGGSLRLSCAASGFTYPPYAMGWYRQAPGKERELVAAISSAGSTKYADSVKGRFTISRDNAKNTVYLQMNSLKPEDTAVYYCAARWARSYDYWGQGTQVTVSS = low polyreactivity
QVQLVESGGGLVQAGGSLRLSCAASGSTFATNAMGWYRQAPGKERELVAAIRRGGGTYYADSVKGRFTISRDNAKNTVYLQMNSLKPEDTAVYYCAALYGGRRPYEYWGQGTQVTVSS = high polyreactivity
QVQLVESGGGLVQAGGSLRLSCAASGLIFYAYAMGWYRQAPGKERELVAAISYSGGSTYYADSVKGRFTISRDNAKNTVYLQMNSLKPEDTAVYYCAASYISVYWRWYEYWGQGTQVTVSS = high polyreactivity
QVQLVESGGGLVQAGGSLRLSCAASGRTFDWYVMGWYRQAPGKERELVASIRGTGSTYYADSVKGRFTISRDNAKNTVYLQMNSLKPEDTAVYYCAARPGYLYSKYNYWGQGTQVTVSS = high polyreactivity
QVQLVASGGGLVQAGGSLRLSCAASGTTLYYYAKGWYRQAPGKEREMGAYISSSGDRTYYADSVNGRFTISRDNAKNTVDLQMNSLKPEDTAVYYCNAYLYVSGLDYATYSLGYWGQGTQVTVSS = low polyreactivity
QVQLVESGGGLVQAGGSLRLSCAASGFTIRLYAMGWYRQAPGKERELVAAITSGGSTYADSVKGRFTISRDNAKNTVYLQMNSLKPEDTAVYYCNAEALVNGGYDYWGQGTQVTVSS = high polyreactivity
QVQLVESGGGLVQAGGSLRLICAASGRTFPRYTMGWYRQEPGNERELVAAISWRGGRTYYADSVKGRFTISLDNAKNTVYLLMNSLKPEDTAVYYCNAQKRDGSMGYWGQGTQVTVSS = high polyreactivity
QVQLVESGGGLVQAGGSLRLSCAASGSTFDVYAMGWYRQAPGKERELVAALTSGGTTNYADSVKGRFTISRDNAKNTVYLQMNSLKPEDTAVSYCNARLTLRSYDYWGQGTLVTVSS = low polyreactivity
QVQLVESGGGLVQAGGSLRLSCAASGSILNNYAMGWYRQAPGKERELVAAISSSGGTNYADSVKGRFTISRDNAKNTVYLPMNSLKPVDTAVYYCNADVLDGGYDYWGQGTQVTVSS = low polyreactivity
